biological target: P2Y purinoceptor 2 (Homo sapiens); test: Agonist activity at human P2Y purinoceptor 2 expressed in human 1321N1 cells assessed as increase in intracellular calcium concentration by spectrofluorimetry
Sequence (P41231 whole entry): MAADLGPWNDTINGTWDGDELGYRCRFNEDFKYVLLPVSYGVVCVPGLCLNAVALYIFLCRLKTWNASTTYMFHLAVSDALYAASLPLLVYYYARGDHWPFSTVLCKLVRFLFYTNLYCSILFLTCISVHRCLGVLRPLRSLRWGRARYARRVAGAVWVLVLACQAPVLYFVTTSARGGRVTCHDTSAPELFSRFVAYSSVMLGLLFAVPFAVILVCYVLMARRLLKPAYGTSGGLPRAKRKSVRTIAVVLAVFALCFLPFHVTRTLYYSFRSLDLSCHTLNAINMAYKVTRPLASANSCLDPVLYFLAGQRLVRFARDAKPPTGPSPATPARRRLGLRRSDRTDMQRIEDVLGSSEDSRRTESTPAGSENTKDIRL
Exercise: for every item that follows, state its recorded EC50.
Response body: numeric value in µM, unit text excluded.

Kindly note the recorded EC50 for BP(=O)(OC[C@H]1O[C@@H](n2cnc3c(N)ncnc32)[C@H](O)[C@@H]1O)OP(=O)(O)OP(=O)(O)OP(=O)(O)OC[C@H]1O[C@@H](n2cnc3c(N)ncnc32)[C@H](O)[C@@H]1O (some centres not stated) , which is 25.9

Form: molecule = BP(=O)(OP(=O)(O)OC[C@H]1O[C@@H](n2cnc3c(N)ncnc32)[C@H](O)[C@@H]1O)OP(=O)(O)OP(=O)(O)OC[C@H]1O[C@@H](n2ccc(=O)[nH]c2=O)[C@H](O)[C@@H]1O (some centres not stated) ; EC50 = 64.2

----------
Would you mind telling me the reported pEC50 of each entry?
target: P2Y purinoceptor 1 (Meleagris gallopavo); test: Agonist activity at turkey P2Y purinoceptor 1 expressed in human 1321N1 cells assessed as increase in intracellular calcium concentration by spectrofluorimetry
Sequence (P49652 whole entry): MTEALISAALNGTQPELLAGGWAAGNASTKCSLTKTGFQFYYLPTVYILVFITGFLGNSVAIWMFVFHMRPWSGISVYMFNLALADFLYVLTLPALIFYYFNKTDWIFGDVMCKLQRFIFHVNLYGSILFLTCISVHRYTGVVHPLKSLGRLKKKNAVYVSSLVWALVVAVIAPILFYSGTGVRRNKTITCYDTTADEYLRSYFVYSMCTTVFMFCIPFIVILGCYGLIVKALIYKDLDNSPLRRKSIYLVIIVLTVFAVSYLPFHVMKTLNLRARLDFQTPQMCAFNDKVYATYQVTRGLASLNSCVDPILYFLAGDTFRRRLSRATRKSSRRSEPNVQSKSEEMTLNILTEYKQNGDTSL
Scale: negative log10 of molar concentration, which is what pEC50 denotes.

Looking up BP(=O)(OC[C@H]1O[C@@H](n2cnc3c(N)ncnc32)[C@H](O)[C@@H]1O)OP(=O)(O)OP(=O)(O)OC[C@H]1O[C@@H](n2cnc3c(N)ncnc32)[C@H](O)[C@@H]1O (some centres undefined) , I found its pEC50 recorded as 6.10

Value of measured pEC50 for the entry BP(=O)(OC[C@H]1O[C@@H](n2cnc3c(N)ncnc32)[C@H](O)[C@@H]1O)OP(=O)(O)OP(=O)(O)OP(=O)(O)OC[C@H]1O[C@@H](n2cnc3c(N)ncnc32)[C@H](O)[C@@H]1O (some centres undefined) : 5.83

response.value for BP(=O)(OP(=O)(O)OC[C@H]1O[C@@H](n2ccc(=O)[nH]c2=O)[C@H](O)[C@@H]1O)OP(=O)(O)OP(=O)(O)OC[C@H]1O[C@@H](n2cnc3c(N)ncnc32)[C@H](O)[C@@H]1O (some centres undefined) (field: pEC50) = 6.30

Entry BP(=O)(OP(=O)(O)OC[C@H]1O[C@@H](n2cnc3c(N)ncnc32)[C@H](O)[C@@H]1O)OP(=O)(O)OP(=O)(O)OC[C@H]1O[C@@H](n2cnc3c(N)ncnc32)[C@H](O)[C@@H]1O (some centres undefined) — recorded pEC50 = 5.52

----------
biological target: P2Y purinoceptor 6 (Rattus norvegicus); assay: Agonist activity at rat P2Y purinoceptor 6 expressed in human 1321N1 cells assessed as increase in intracellular calcium concentration by spectrofluorimetry
Sequence (Q63371 whole entry): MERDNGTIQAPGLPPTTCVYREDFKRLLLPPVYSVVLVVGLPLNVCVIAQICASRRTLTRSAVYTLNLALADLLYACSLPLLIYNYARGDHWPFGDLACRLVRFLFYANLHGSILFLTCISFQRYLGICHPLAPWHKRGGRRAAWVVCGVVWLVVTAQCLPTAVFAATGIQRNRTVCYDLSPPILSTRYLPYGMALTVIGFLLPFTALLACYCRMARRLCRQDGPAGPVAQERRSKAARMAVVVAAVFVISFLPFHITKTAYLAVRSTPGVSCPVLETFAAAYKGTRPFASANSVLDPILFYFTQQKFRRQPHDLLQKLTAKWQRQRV
quantityMeasured: EC50 (nM)
Write it as a number; the unit nM goes unstated.

Lookup result for BP(=O)(OP(=O)(O)OC[C@H]1O[C@@H](n2ccc(=O)[nH]c2=O)[C@H](O)[C@@H]1O)OP(=O)(O)OP(=O)(O)OC[C@H]1O[C@@H](n2ccc(=O)[nH]c2=O)[C@H](O)[C@@H]1O (stereo not given in full) ; measured EC50: 1930

Recorded result, BP(=O)(OP(=O)(O)OC[C@H]1O[C@@H](n2ccc(=O)[nH]c2=O)[C@H](O)[C@@H]1O)OP(=O)(O)OP(=O)(O)OC[C@H]1O[C@@H](n2cnc3c(N)ncnc32)[C@H](O)[C@@H]1O (stereo not given in full) , EC50: 20900

Measured EC50 of BP(=O)(OC[C@H]1O[C@@H](n2ccc(=O)[nH]c2=O)[C@H](O)[C@@H]1O)OP(=O)(O)OP(=O)(O)OC[C@H]1O[C@@H](n2ccc(=O)[nH]c2=O)[C@H](O)[C@@H]1O (stereo not given in full) : 720

GET /value?item= BP(=O)(OC[C@H]1O[C@@H](n2ccc(=O)[nH]c2=O)[C@H](O)[C@@H]1O)OP(=O)(O)OP(=O)(O)OP(=O)(O)OC[C@H]1O[C@@H](n2ccc(=O)[nH]c2=O)[C@H](O)[C@@H]1O (stereo not given in full) &field=EC50 returns 36100

# EC50 (compound: BP(=O)(OP(=O)(O)OC[C@H]1O[C@@H](n2cnc3c(N)ncnc32)[C@H](O)[C@@H]1O)OP(=O)(O)OP(=O)(O)OC[C@H]1O[C@@H](n2ccc(=O)[nH]c2=O)[C@H](O)[C@@H]1O (stereo not given in full) ) is 1290
